# System: MOLT-4
# test method notes: NCI tumour cell line growth inhibition, 48 h
Active and inactive are the calls of the source. No stated cut-off is given here; in the data, active = GI50 up to about 1.1 µM and inactive = higher.
In this exercise, the only acceptable responses are True (active), False (inactive)

Request: Hi, do you know how CCN(CC)c1ccc(Cl)c2c1C(O)(C(C)C)C2(C)C (stereo not given) came out in this test?
Response: False

Request: What call does the record list for C=Cc1ccccc1C1(O)C=CC(OC)(OC)C=C1 ?
Response: False

Request: Record request — test call for CC(=O)Nc1ccc(/C=C/[N+](=O)[O-])cc1
Response: False

Request: Record request — test call for Cc1cc2c(=O)cc(-c3ccc(O)cc3)oc2c(C(=O)O)c1C
Response: False

Request: Please let me know the test result on file for CC1CC(C)CN(S(=O)(=O)c2cc(Cl)c(Oc3ccc([N+](=O)[O-])cc3Cl)c(Cl)c2)C1 (stereo not given) .
Response: False

Request: Hello, I am checking results. What call was entered for Cc1ccc(S(=O)(=O)n2cc(-c3cnc(N)c(Br)n3)c3ccccc32)cc1 ?
Response: True

Request: Record request — test call for CC(=O)O[C@@H]1C[C@@]2(C)[C@@H]3CC=C4[C@@H](C[C@H](O)C(=O)C4(C)C)[C@]3(C)C(=O)C[C@]2(C)[C@H]1[C@@](C)(O)C(=O)/C=C/C(C)(C)OC(C)=O
Response: False

Request: Any idea what this test logged for Cc1[nH]n(-c2nc3c(c(=O)[nH]2)CCCC3)c(=O)c1CCO ?
Response: False

Request: Dear all, I need the recorded test outcome for CCOC(=O)C(SCCO)C(C(=O)OCC)n1ccc(N)nc1=O (stereo not given) , thank you.
Response: False

Request: Entry [N-]=[N+]=Nc1c([N+](=O)[O-])c(=O)n(-c2ccccc2)c2ccccc12 : call = ?
Response: False

Request: Outcome? C=C1CC2(CCCC3(CC(=C)C(=O)O3)C2(C)C)OC1=O (stereo not given)
Response: True

Request: // outcome(item) with item = CC(C)(C)[Si](C)(C)OC1C(=O)C[C@H]2CCCC[C@@H]12 (stereo not given in full)
Response: False

Request: Hi, sorry to bother you, what did the test record for Cc1cc(=O)n(-c2cc3cccccc-3n2)[nH]1 ?
Response: False

Request: Recorded test outcome, item COc1ccc(C2=Nn3c(nc4sc(-c5ccccc5)cc4c3=O)SC2)cc1
Response: False

Request: For O=C(COc1ccc(OCC(=O)N2C(=O)CC(=O)N(c3ccccc3)C2=S)cc1)N1C(=O)CC(=O)N(c2ccccc2)C1=S , which call appears in the assay record?
Response: False

Request: I would be grateful if you could indicate the recorded call for O=c1[nH]c(=O)n(C2OC(CO)C(O)C2O)cc1OCCc1ccccc1 (stereo not given) .
Response: False

Request: Returns: the outcome recorded for COc1ccc(/C=C2\NC(=S)N(CN3CCCCC3)C2=O)cc1 in this assay.
Response: False

Request: Hi, do you know how CC(=O)N1C(Nc2cccc3nc(C)ccc23)CCN1c1ccccc1 (stereo not given) came out in this test?
Response: False

Request: Please share the test call associated with Cn1c(=O)cc2[nH]c3ccccc3n2c1=O .
Response: False

Request: Status in this test for CCCCCCCCCCCCCCCC(=O)OCC1OC(N2C(=O)/C(=N\NC(N)=S)c3ccc([N+](=O)[O-])cc32)C(OC(C)=O)C1OC(C)=O (stereo not given) ?
Response: False

Request: How did this test come out for O=C(Nc1sccc1S(=O)(=O)c1ccccc1)c1cccnc1 ?
Response: False

Request: Please let me know the test result on file for C=C(CN(CC(=C)C(=O)c1ccccc1)C(C)(C)C)C(=O)c1ccccc1 .
Response: False

Request: Dear colleague, could you share the recorded outcome for CN(C)C(=O)OC1C(=O)N(C)c2ccc(Cl)cc2C2(c3ccccc3)N1C2(Cl)Cl (stereo not given) when you have a moment?
Response: False

Request: For O=C(CNc1ccccn1)Nn1cnc2ccc(S(=O)(=O)Nc3ccccn3)cc2c1=O , which call appears in the assay record?
Response: False

Request: Give the logged outcome of this assay for the following compound: C=CC(C)(C)N[C@@H](C(=O)N1CCC[C@H]1c1nc(-c2nc(C(=O)OCC=C(C)C)c(C)o2)c(C)o1)C(C)C
Response: False

---

# System: UACC-257
# test method notes: NCI tumour cell line growth inhibition, 48 h
Activity calls are given as the source filed them. Rule as the data show it: active = GI50 up to about 1.1 µM and inactive = higher. Where a SMILES comes first, the peptide text is derived from it. [ ]: non-standard residue; d: D form. The star is where a group is joined. Octanoyl = CCCCCCCC(=O)*; Aib = CC(C)(N)C(=O)O; tBu = CC(C)(C)*
Your response should consist of one outcome taken from class 1 = active, class 0 = inactive

Request: // param item: C#CC(C)(C)Oc1cc(OC)c2c(=O)c3ccccc3n(C)c2c1 ; yields the recorded call
Response: class 0

Request: How did this test come out for CC1=C/C(=N\NS(=O)(=O)c2ccc([N+](=O)[O-])cc2)CC(C)(C)C1 ?
Response: class 0

Request: Which outcome was entered for the molecule CC(C)(C)n1c(=O)[nH]n(C2NN=Cc3cccc4cccc2c34)c1=O (configuration not stated) in this test?
Response: class 0

Request: Dear colleague, could you share the recorded outcome for O=C(CC1Sc2ccccc2NC1=O)Nc1cccc(Cl)c1 (configuration not stated) when you have a moment?
Response: class 0

Request: Recorded call for CC1CC(C)CN(S(=O)(=O)c2cc(Cl)c(Oc3ccc([N+](=O)[O-])cc3Cl)c(Cl)c2)C1 (configuration not stated) ?
Response: class 0

Request: # lookup: test call for CN(/N=C\c1ccnc2ccccc12)c1ccc([N+](=O)[O-])cc1
Response: class 0

Request: Would you mind telling me which call this test gave CC(C)(C)N(Cc1ccccc1)C(=O)/C=C\[S+]([O-])c1ccccc1 (configuration not stated) ?
Response: class 0

Request: Could you check what this test reported for CCN(CC)C(=O)N1CN(c2ccccc2)C2(CCN(CCCC3(c4ccc(F)cc4)OCCO3)CC2)C1=O ?
Response: class 0

Request: Query: recorded result category for O=C(COc1ccc(OCC(=O)N2C(=O)CC(=O)N(c3ccccc3)C2=S)cc1)N1C(=O)CC(=O)N(c2ccccc2)C1=S in this test
Response: class 0

Request: Recorded test call requested for CCCCCCCC(=O)NC(C)(C)C(=O)NC(COC(C)(C)C)C(=O)NC(CC(C)C)C(=O)NC(C)(C)C(=O)NC(COC(C)(C)C)C(=O)NC(COC(C)(C)C)C(=O)NC(CC(C)C)C(=O)NC(C)(C)C(=O)NC(COC(C)(C)C)C(=O)NC(C(=O)NC(CC(C)C)C(=O)OC)C(C)CC (configuration not stated) (Octanoyl-[Aib]S(tBu)L[Aib]S(tBu)S(tBu)L[Aib]S(tBu)IL-OMe; configuration not given here)
Response: class 0

Request: Which result was noted for this molecule in the test: CC1=CC(=O)/C(=C/n2c(=S)[nH]c3ccc([N+](=O)[O-])cc32)C(=O)O1
Response: class 0

Request: Give the logged outcome of this assay for the following molecule: [N-]=[N+]=Nc1ccccc1-[n+]1noc([O-])c1Br
Response: class 0

Request: What was the test verdict on COc1cc2ccnc3c2c(c1OC)N(C)C=C3 ?
Response: class 0

Request: Recorded test outcome, item CCCCC1(NN=C2CCCCC2)C(=O)N(c2ccccc2)N(c2ccccc2)C1=O
Response: class 0

Request: Please let me know the test result on file for CCN(CC)C(=S)SC [METHYLDIETHYL CARBAMODITHIOATE] .
Response: class 0

Request: Per the records of this test, what outcome belongs to O=S1(=O)c2ccccc2NC(=S)N1c1ccccc1 ?
Response: class 0

Request: Per the records of this test, what outcome belongs to CCCCCCCC/C=C\CCCCCCCCCCCC(=O)O [ERUCIC ACID] ?
Response: class 0

Request: Outcome logged for O=CN/C=C/c1ccccc1 in this assay:
Response: class 0

Request: Just curious, what result did CCOC(=O)C(SCCO)C(C(=O)OCC)n1ccc(N)nc1=O (configuration not stated) get here?
Response: class 0

Request: Per the assay record, what outcome was assigned to COC(=O)[C@@]1(C(C)CC(=O)O)CCCCC1=O (some centres not stated) ?
Response: class 0

Request: For COc1ccc(NC(=O)/C(CC2=Nc3ccc([N+](=O)[O-])cc3NC2O)=N\NC(=O)C[N+](C)(C)C)c(OC)c1 (configuration not stated) , which call appears in the assay record?
Response: class 0

Request: Please indicate how the test categorized O=C(CNc1ccccn1)Nn1cnc2ccc(S(=O)(=O)Nc3ccccn3)cc2c1=O .
Response: class 0

Request: # outcome recorded in this test, key = COc1cccc2c1C(=O)c1c(O)c3c(c(O)c1C2=O)C[C@@](O)(C(=O)CO)CC3OC1CC(NCCOCC(OC(C)=O)OC(C)=O)C(O)C(C)O1 (some centres not stated)
Response: class 1

Request: Would you mind telling me which call this test gave COc1ccc2nc(-c3ccc(OC(=O)N(C)C)cc3)cn2c1 ?
Response: class 0

Request: How did this test come out for CN(C)C(=S)C(Cl)(c1ccccc1)c1ccccc1 ?
Response: class 0

Request: Hi, sorry to bother you, what did the test record for CC(C)C1OC(=O)/C=C/C=C/C=C/C=C/C=C/CC(O)CC(O)CC(O)CC(O)CC(O)CC(O)CC(O)CC(O)/C=C/C1C (configuration not stated) ?
Response: class 0

Request: Any idea what this test logged for O=C1Nc2ccc(Br)cc2/C1=N/S(=O)(=O)O ?
Response: class 0

Request: Name the outcome recorded for O=C1OC(c2ccccc2)=N/C1=C/NC(Cc1c[nH]cn1)C(=O)O (configuration not stated) in the assay.
Response: class 0

Request: Recorded test outcome, item Oc1cccc2ccc(Br)nc12
Response: class 0

Request: Field: outcome | Entry: CN1CCN([C@H]2C[C@H]3[C@@H]4CC=C5C[C@@H](O)CC[C@]5(C)[C@H]4CC[C@]3(C)C2=O)CC1
Response: class 0

Request: What classification did O=C(O)CCc1nc(-c2ccccc2-n2cccc2)no1 end up with in this test?
Response: class 0

Request: How was CCOC(=O)C(C)N1C(=O)c2ccccc2S1(=O)=O (configuration not stated) classified in this test?
Response: class 0

Request: Called result for O=C(O)c1cc(N(Cc2ccccc2O)Cc2cc(O)ccc2O)ccc1O [LAVENDUSTIN A]
Response: class 0

Request: What did the test return for C=CCNC(=S)NC=C(C(N)=O)C(N)=O ?
Response: class 0

Request: Write down the call the test reported for this molecule. Item: C=C1C[C@@H](O)[C@@H](Br)C(C)(C)[C@@]12C=CC(O)(CBr)CC2 (some centres not stated)
Response: class 0

Request: What did this assay record as the result for NC1CCC[C@H]1O (some centres not stated) ?
Response: class 0

Request: Outcome logged for OCC12C3C4C1C1C2C3C41CO (configuration not stated) in this assay:
Response: class 0
